Data credit: the DeepSol protein solubility set

experimentSummary: soluble on expression in E. coli; label from the status in PepcDB or PDB records
measurementType: soluble on expression in E. coli

Field: example entries. Status: answers known.
>  <monomerSequence>
MPMTGRCREPNCHAVVVRPLHYCTKHADKEAAYQASRERWTNRTSNSKRYKDYDRMRSKDPFKAEQHKFYQGKQWRSIREIALRRDNYLCQYCLNHKRVRTGNIGDHIVPYEVEPENRTNLANIAIACSKCHTAKTKWEQLYYGTGMGNKLKNAIPIRNVKDLPDFQKNIRLEHHHHHH

>  <valueObserved>
not soluble

$$$$
>  <monomerSequence>
LSSPQNILVCVTQQITCERLILKAAELRNELKGELFVIHVAKNEWNFLDNIKEGEALEYLFKISKSVGANLSVLKSDDIVQTIVNFAKENKITHIVMGESPNDHKENNFYNELKRLLSNVEILVIPQAGI

>  <valueObserved>
not soluble

$$$$
>  <monomerSequence>
MGGGGGGMEQFNAFKSLLKKHYEKTIGFHDKYIKDINRFVFKNNVLLILLENEFARNSLNDNSEIIHLAESLYEGIKSVNFVNEQDFFFNLAKLEENSRDTLYQNSG

>  <valueObserved>
soluble

$$$$
>  <monomerSequence>
MTQSDYIESSEHIKDTQIGYCKYGHGPNYILAICGAVGCYKKDWPLKLLSHFPPDQVTIVGIDPPGYGTSRPPERKQEVQRCMKDSEYCLGLMETLKLEPFTVMGWSEGARTTVHVAAKGKEKVNRMIVMAGATKVNHLGAMAFKGMRETNHWLAAGRQPYLDHYSPETLRTQWAALCDVVDQVHSFCGGRFPCDLVLPQVKCPTLVMNGGLDRFCGDPNVCFIPVLKSLAKVEIHAQGGHDFYLKYPKWFSGKVLEFLKSTEKK

>  <valueObserved>
not soluble

$$$$
>  <monomerSequence>
MSLNQLFCHPETITIKKAVYYDIAPIPLPTPFKDGTGGVRHASFFKGWMKIYDEDGFCGQGPAGPLMTDFFLPRMLNAPGKSNGEWMEYFWWEIRNFGYQSPYIPEMTNLDWLLLDLLANRAGLPLHRFLGADRDWACVYKGGGSVLLSDEALISDLQRFKDEGYKTTKFKIGGSGPDFSQDIRRLEKARQALGDGFGIAVDANQAWDAKTAFAFAKEAAPLGVAWLEEPVHAYDMDALRELRDLLDEAGIAMEIAMGESVRSYHTHVAYAEHGVDHLQPARLYCIAENMRVREYARRHGCRISTGGFTFQNAALGALYSEDELLEYHQPLNEVLVPYFSLVSEMKDGRFYLPDVPGLPVHLDFERLERDGLLRGIQFYYHKEGHHHHHH

>  <valueObserved>
soluble

$$$$

Next up:
Query "MGSDKIHHHHHHMKVTILLPAYNAALYLRDSLDSIMRQAFKDFDVLLIDDGSMDDTSKIAIEYSNIDRRIKYYKNEKNIGLIKTLNKGLSLAKGEYIVRMDADDIMFDDRLYKQVKYMDSNPECFVCGGQMEYIGGLTGMAPILPQKYEDLLYLSLINCPLYHPTTIIRNSAIKQFGLKYNDSYKHAEDYKFWSDIIFSHPNSIANIKDVVLFYRISNNQITAKYSDEQDLISKIVRRENVQHVLVPYGIKLPEVVNCEIIEKVSSLIRKEHIDAAEILTLVLCMLYMSMENSYVRIKHFILSNDYSLFVKNSSRIKLGLSVLLSGIFSNRGKRFVI" yields soluble on expression in E. coli of not soluble
